Target: rat TRPV1 (Rattus norvegicus (Rat))
Conditions: read-out: Rat IC50
pIC50: −log10 of the molar value. Where a name gives a salt, the structure may show the parent alone.
Output Satisfied for pIC50 not less than 6; output Not satisfied otherwise.

molecule | target_or_test_system | label
CSc1nc2c(c(Nc3ccc(C(F)(F)F)nc3)n1)CCN(c1ncccc1C(F)(F)F)CC2 [Example 75B, trifluoroacetic acid salt] | rat TRPV1 (Rattus norvegicus (Rat)) | Satisfied
CC(C)NS(=O)(=O)c1cccnc1N1CCc2nc(N3CCCCC3)nc(Nc3ccc(C(F)(F)F)cc3)c2CC1 | rat TRPV1 (Rattus norvegicus (Rat)) | Not satisfied
N#Cc1cccnc1N1CCc2ncnc(Nc3ccc(C(F)(F)F)cc3)c2CC1 | rat TRPV1 (Rattus norvegicus (Rat)) | Not satisfied
CC(C)(C)c1ccc(Nc2nc(N3CCCC3)nc3c2CCN(c2ncccc2C(F)(F)F)CC3)cc1 | rat TRPV1 (Rattus norvegicus (Rat)) | Satisfied
Cc1cccc(Nc2nc3c(c(Nc4ccc(C(F)(F)F)cc4)n2)CCN(c2ncccc2C(F)(F)F)CC3)c1 [Example 279, trifluoroacetic acid salt] | rat TRPV1 (Rattus norvegicus (Rat)) | Not satisfied
O=S(=O)(c1ccc(Nc2nc(OC3CCOC3)nc3c2CCN(c2ncccc2C(F)(F)F)CC3)cc1)C(F)(F)F (stereo not shown) | rat TRPV1 (Rattus norvegicus (Rat)) | Satisfied

====

Reported pIC50 is given for each of the following molecules.
Molecular target: rat TRPV1 (Rattus norvegicus (Rat), UniProt O35433)
Sequence (O35433 whole entry): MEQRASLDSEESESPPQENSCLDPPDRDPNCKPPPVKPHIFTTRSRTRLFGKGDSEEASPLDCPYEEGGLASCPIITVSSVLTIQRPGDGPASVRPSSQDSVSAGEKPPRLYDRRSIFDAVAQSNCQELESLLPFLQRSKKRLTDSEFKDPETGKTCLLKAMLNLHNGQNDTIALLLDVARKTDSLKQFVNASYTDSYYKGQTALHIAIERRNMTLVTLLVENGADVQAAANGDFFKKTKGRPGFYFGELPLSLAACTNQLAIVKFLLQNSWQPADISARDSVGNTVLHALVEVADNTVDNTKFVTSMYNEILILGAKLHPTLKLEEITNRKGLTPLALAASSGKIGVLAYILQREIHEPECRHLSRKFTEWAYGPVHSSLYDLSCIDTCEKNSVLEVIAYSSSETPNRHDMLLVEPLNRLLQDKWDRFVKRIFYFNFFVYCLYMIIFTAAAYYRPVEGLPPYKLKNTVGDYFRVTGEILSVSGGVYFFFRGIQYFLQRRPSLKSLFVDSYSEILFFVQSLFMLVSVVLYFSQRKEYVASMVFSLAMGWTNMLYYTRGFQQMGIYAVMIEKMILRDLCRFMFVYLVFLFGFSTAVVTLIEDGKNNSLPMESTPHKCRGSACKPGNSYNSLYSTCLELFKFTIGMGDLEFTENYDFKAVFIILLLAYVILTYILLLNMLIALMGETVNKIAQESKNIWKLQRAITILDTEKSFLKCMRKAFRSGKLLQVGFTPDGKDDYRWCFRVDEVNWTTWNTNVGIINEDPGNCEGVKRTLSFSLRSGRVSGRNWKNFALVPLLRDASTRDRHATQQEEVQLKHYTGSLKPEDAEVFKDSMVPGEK
Conditions: read-out: Rat IC50
pIC50: −log10 of the molar value.
measured_attribute: pIC50

chemical_structure | measured_attribute | value
FC(F)(F)c1ccc(Nc2nc(N3CCCCC3)nc3c2CCN(c2ncccc2C(F)(F)F)CC3)cc1 | pIC50 | 7.74
CC(C)(C(=O)O)c1ccc(Nc2nc(N3CCOCC3)nc3c2CCN(c2ncccc2C(F)(F)F)CC3)cc1 | pIC50 | 5.81
O=S(=O)(c1ccc(Nc2nc(SCc3ccccc3)nc3c2CCN(c2ncccc2C(F)(F)F)CC3)cc1)C(F)(F)F | pIC50 | 6.49
CC(C)(C#N)c1ccc(Nc2nc(N3CCOCC3)nc3c2CCN(c2ncccc2C(F)(F)F)CC3)cc1 | pIC50 | 7.40

====

Target: rat TRPV1 (Rattus norvegicus (Rat), UniProt O35433)
Details: read-out: Rat IC50
Listing of entries alongside the reported IC50.

chemical_structure | unit_string | IC50
FC(F)(F)c1ccc(Nc2nc(-c3ccco3)nc3c2CCN(c2ncccc2C(F)(F)F)CC3)cc1 | nM | 240
CN1CCCc2ccc(Nc3nc(OC4CCCCC4)nc4c3CCN(c3ncccc3C(F)(F)F)CC4)cc21 | nM | 250
CC(C)Sc1nc2c(c(Nc3ccc(C(F)(F)F)cc3)n1)CCN(c1ncccc1C(F)(F)F)CC2 | nM | 60
CC(C)c1nc2c(c(NCCc3ccc(Cl)cc3)n1)CCN(c1ncccc1C(F)(F)F)CC2 | nM | 570

====

Listed here: items and their measured pIC50.
Target: rat TRPV1 (Rattus norvegicus (Rat))
Conditions: read-out: Rat IC50
pIC50: −log10 of the molar value. Structures can show the parent of a compound that is named as a salt.

compound | modifier | pIC50
CCS(=O)(=O)c1cccnc1N1CCc2nc(SC)nc(Nc3ccc(C(F)(F)F)cc3)c2CC1 | = | 5.95
COCCN(C)c1nc2c(c(Nc3ccc(C(F)(F)F)c(Cl)c3)n1)CCN(c1ncccc1C(F)(F)F)CC2 [Example 229, trifluoroacetic acid salt] | = | 7.22
CCCSc1nc2c(c(Nc3ccc(C(F)(F)F)cc3)n1)CCN(c1ncccc1C(F)(F)F)CC2 | < | 5.18
FC(F)(F)c1ccc(Nc2nc(Sc3ccccc3)nc3c2CCN(c2ncccc2C(F)(F)F)CC3)cc1 | = | 5.63

====

Target: rat TRPV1 (Rattus norvegicus (Rat), UniProt O35433)
Conditions: read-out: Rat IC50
Where a name gives a salt, the structure may show the parent alone.

compound | modifier | IC50 (nM)
CC(C)c1nc2c(c(Nc3ccc(Oc4ccccc4)cc3)n1)CCN(c1ncccc1C(F)(F)F)CC2 | = | 770
FC(F)(F)c1ccc(Nc2nc(C3CC3)nc3c2CCN(c2ncccc2C(F)(F)F)CC3)nc1 | = | 510
CC(C)c1nc2c(c(Nc3ccc(C(F)(F)F)cc3)n1)CCN(c1ncccc1S(C)(=O)=O)CC2 | = | 370
CC(C)c1nc2c(c(Nc3ccc(C(C)(C)C)cc3)n1)CCN(c1ncc(N)cc1C(F)(F)F)CC2 | = | 320
CC(C)c1nc2c(c(Nc3ccc(C(F)(F)F)nc3)n1)CCN(c1ncccc1C(F)(F)F)CC2 | = | 310
CC(C)c1nc2c(c(NC3CCC(C(C)(C)C)CC3)n1)CCN(c1ncccc1C(F)(F)F)CC2 (stereo not drawn) | = | 190
CCCCOc1nc2c(c(Nc3ccc(C(F)(F)F)nc3)n1)CCN(c1ncccc1C(F)(F)F)CC2 | = | 890
CC(C)c1nc2c(c(Nc3ccc4c(c3)CCC4)n1)CCN(c1ncccc1C(F)(F)F)CC2 [Example 141, hydrochloride salt] | = | 130
O=S1(=O)CCCCN1c1nc2c(c(Nc3ccc(C(F)(F)F)cc3)n1)CCN(c1ncccc1C(F)(F)F)CC2 [Example 212, trifluoroacetic acid salt] | = | 220
CCS(=O)(=O)c1cccnc1N1CCc2nc(N3CCCCC3)nc(Nc3ccc(C(F)(F)F)cc3)c2CC1 | = | 1080
FC(F)(F)c1ccc(Nc2nc(N3CCCCC3)nc3c2CCN(c2ncccc2C(F)(F)F)CC3)nc1Cl | = | 90
CC(C)(C)c1ccc(Nc2nc(-c3ccccc3)nc3c2CCN(c2ncccc2C(F)(F)F)CC3)cc1 | = | 490
FC(F)(F)c1ccc(Nc2nc(N3CCC3)nc3c2CCN(c2ncccc2C(F)(F)F)CC3)cn1 | = | 390
CS(=O)(=O)c1cccnc1N1CCc2ncnc(Nc3ccc(C(F)(F)F)cc3)c2CC1 | = | 8520
CC(C)c1nc2c(c(Nc3ccc(C(F)(F)F)cc3)n1)CCN(c1ccccc1N)CC2 | > | 20000

====

Quick list: pIC50 per entry.
Biological target: rat TRPV1 (Rattus norvegicus (Rat), UniProt O35433)
Conditions: read-out: Rat IC50
pIC50: −log10 of the molar value. Structures can show the parent of a compound that is named as a salt.
measured_attribute: pIC50

molecule | measured_attribute | value
CN(C)c1nc2c(c(Nc3ccc4c(c3)OCCO4)n1)CCN(c1ncccc1C(F)(F)F)CC2 [Example 68B, trifluoroacetic acid salt] | pIC50 | 5.49
CC(Oc1nc2c(c(Nc3ccc(S(=O)(=O)N4CCCC4)cc3)n1)CCN(c1ncccc1C(F)(F)F)CC2)C1CCCCC1 (stereo not shown) [Example 320] | pIC50 | 7.70
CC(C)c1nc2c(c(Nc3ccc(C(C)O)cc3)n1)CCN(c1ncccc1C(F)(F)F)CC2 (stereo not shown) [Example 182] | pIC50 | 6.10
CC(C)(O)c1ccc(Nc2nc(N3CCOCC3)nc3c2CCN(c2ncccc2C(F)(F)F)CC3)cc1 [Example 389] | pIC50 | 6.49
FC(F)(F)c1ccc(Nc2nc(-c3ccncc3)nc3c2CCN(c2ncccc2C(F)(F)F)CC3)cn1 [Example 170, trifluoroacetic acid salt] | pIC50 | 7.22
FC(F)(F)c1ccc(Nc2nc(SC3CCCCC3)nc3c2CCN(c2ncccc2C(F)(F)F)CC3)cc1 [Example 354] | pIC50 | 6.60
FC(F)(F)c1ccc(Nc2nc(C3CC3)nc3c2CCN(c2ncccc2C(F)(F)F)CC3)cc1 [Example 5] | pIC50 | 6.82

====

Molecular target: UniProtKB O35433
Conditions: read-out: Rat IC50
pIC50: −log10 of the molar value. Structures can show the parent of a compound that is named as a salt.
Would you mind labelling by pIC50? At or over 6 is y, under is n.

molecule | label
CC(C)c1nc2c(c(Nc3ccc(Cl)c(Cl)c3)n1)CCN(c1ncccc1C(F)(F)F)CC2 [Example 109] | y
CN(C)c1nc2c(c(Nc3ccc([N+](=O)[O-])cc3)n1)CCN(c1ncccc1C(F)(F)F)CC2 [Example 72B, trifluoroacetic acid salt] | y
CSc1nc2c(c(Nc3ccc(C(F)(F)F)cc3)n1)CCN(c1ncccc1C(F)(F)F)CC2 [Example 52] | y
CC(C)c1nc2c(c(Nc3ccc(C(=O)N(C)C)cc3)n1)CCN(c1ncccc1C(F)(F)F)CC2 [Example 127] | n
FC(F)(F)c1ccc(Nc2nc(N3CCCCCC3)nc3c2CCN(c2ncccc2C(F)(F)F)CC3)cc1 [Example 222] | y
CC(C)c1nc2c(c(Nc3ccc(C(C)(C)C(=O)O)cc3)n1)CCN(c1ncccc1C(F)(F)F)CC2 [Example 184] | n
CC(C)(C)c1ccc(Nc2nc(N3CCOCC3)nc3c2CCN(c2ncccc2C(F)(F)F)CC3)cc1 [Example 47] | y
FC(F)(F)c1ccc(Nc2nc(N3CCN(Cc4ccccc4)CC3)nc3c2CCN(c2ncccc2C(F)(F)F)CC3)cc1 [Example 102] | y
NS(=O)(=O)c1cccnc1N1CCc2ncnc(Nc3ccc(C(F)(F)F)cc3)c2CC1 [Example 302] | n
Cc1cc(C(F)(F)F)ccc1Nc1nc(OC2CCCC2)nc2c1CCN(c1ncccc1C(F)(F)F)CC2 [Example 310] | y
